test details: Metabolic stability in human liver microsomes
Type: in vitro ADME
conditions used: both sexes, human, microsomes, pH 7.4, Table 3; 37° C., NADPH; read-out: Half-life in human liver microsomes (single determinations) (converted)
Experimental: The prodrugs were incubated with the human liver microsomes at 37° C. as an indication of the susceptibility of prodrugs to undergo bioconversion in the liver. […] After immediate mixing and centrifugation (5 min at 14.000 rpm), the resulting clear supernatant was analyzed for the remaining prodrug by HPLC.

smiles	half-life / min
C=C(C)[C@@H]1CCC(C)=C[C@H]1c1c(O)cc(CCCCC)cc1OC(=O)CN1CCN(C)CC1	7.2

---

test details: Stability in 80% human plasma (serum)
Assay type: in vitro ADME
conditions used: human, serum, pH 7.4, Table 3; 80% human serum (pH 7.4) at 37° C.
measured attribute: half-life (h)

smiles	quantitative result
C=C(C)[C@@H]1CCC(C)=C[C@H]1c1c(O)cc(CCCCC)cc1OC(=O)CN1CCN(C)CC1	2.6

---

test details: Aqueous solubility of CBD and solubility in various solvents
Assay type: physicochemical
conditions used: aqueous with cosolvent or surfactant or cyclodextrin, thermodynamic from solid; 5% HP-beta-CD:0.5% HPMC:84.5% H2O; ca. 1 mg in ca. 1 ml; read-out: Solubility

smiles	solubility, µg/mL
C=C(C)[C@@H]1CCC(C)=C[C@H]1c1c(O)cc(CCCCC)cc1O	160

---

test details: Aqueous solubility of CBD and solubility in various solvents
Assay type: physicochemical
conditions used: phosphate buffer with 10% (v/v) ethanol, aqueous with cosolvent or surfactant or cyclodextrin, thermodynamic from solid; 50 mM phosphate buffer, pH 6.8, 10% (v/v) EtOH; suspension centrifuged; read-out: Solubility

compound	solubility
C=C(C)[C@@H]1CCC(C)=C[C@H]1c1c(O)cc(CCCCC)cc1O [CBD, Cannabidiol]	15 to 110 µg/mL

---

test details: Metabolic stability in human liver microsomes
Format: in vitro ADME
conditions used: both sexes, human, microsomes, pH 7.4; Table 3; CLint = k/P, protein 1 mg; read-out: Intrinsic clearance CLint

compound	microsomal CLint at 15 µg/mL
C=C(C)[C@@H]1CCC(C)=C[C@H]1c1c(O)cc(CCCCC)cc1O [CBD, Cannabidiol]	23.1 µL/min/mg

---

test details: Stability in aqueous solutions (sodium phosphate buffer, 37° C.)
Type: physicochemical
conditions used: buffer, pH 9, Table 3; pH 9; read-out: Half-life in aqueous solution (converted)
Method: […] The solutions of prodrugs were prepared by adding 10 μL of stock solution (10 mg/mL in DMSO) to the preheated buffer. The solutions were stirred at a constant temperature of 37° C. At appropriate intervals, 75 μL of samples were mixed with 75 μL of MeOH and analyzed for remaining prodrug by HPLC. […]
measured attribute: half-life (h)

molecule	measured attribute	quantitative result
C=C(C)[C@@H]1CCC(C)=C[C@H]1c1c(O)cc(CCCCC)cc1OC(=O)NCCN(C)C [CBDp27]	half-life	1.64

---

test details: Stability in aqueous solutions (sodium phosphate buffer, 37° C.)
Type: physicochemical
conditions used: Table 5; aqueous buffer pH 6.8, 37° C.; single determinations
Recorded Half-life in aqueous solution for the following molecules

molecule	Half-life in aqueous solution
CCCCCc1cc(O)c(C/C=C(\C)CCC=C(C)C)c(OC(=O)N2CCN(C)CC2)c1 [CBGp2]	70.2 min
CCCCCc1cc(OC(=O)C2CCNC2)c2c(c1)OC(C)(C)[C@@H]1CCC(C)=C[C@@H]21 (stereo partly shown) [THCp2]	27.6 min
CCCCCc1cc(O)c(C/C=C(\C)CCC=C(C)C)c(OC(=O)C2CCNC2)c1 (stereo not shown) [CBGp1]	32.4 min
CCCCCc1cc(OC(=O)N2CCN(C)CC2)c(C/C=C(\C)CCC=C(C)C)c(OC(=O)N2CCN(C)CC2)c1 [CBGp3]	22.8 min
CCCCCc1cc(O)c(C/C=C(\C)CCC=C(C)C)c(OC(=O)N2CCNCC2)c1 [CBGp5]	15.6 min
CCCCCc1cc(OC(=O)N2CCN(C)CC2)c2c(c1)OC(C)(C)[C@@H]1CCC(C)=C[C@@H]21 [THCp1]	24.6 min
CCCCCc1cc(OC(=O)N2CCNCC2)c2c(c1)OC(C)(C)[C@@H]1CCC(C)=C[C@@H]21 [THCp3]	64.2 min

Numbers sourced from patent US20220339150A1.
